# experimental.details: Drug uptake in tumor of NOD/SCID mouse xenografted with human MV4-11 cells at 100 mg/kg, po measured at 24 hrs by LC-MS/MS analysis
# Format: ADME, organism-based, Neoplasm
# Parameters: dose 100 mg/kg, route oral
# condition.set: read-out: Drug uptake
quantity.kind: concentration at 24 h (ng/mL)
Give bare numbers, in ng/mL.

Just so you know, measured concentration at 24 h for CC(C)C1=C(C(=O)N2[C@H](C)CC[C@H]2C(=O)N2CCN(C)[C@H](C)C2)SC2=N[C@@](C)(c3ccc(Cl)cc3)[C@@H](c3ccc(Cl)cc3)N21 came out at 4300

----------
# experimental.details: Metabolic stability in mouse liver microsomes assessed as compound remaining at 1 uM after 30 mins by LC-MS/MS analysis
# Assay type: ADME, Microsome
# condition.set: read-out: Stability
API: label(entry) gives Satisfied if the entry's remaining at 0.5 h, 1 µM is strictly smaller than 60%; on equality or larger values it gives Not satisfied.

Example entries and their recorded answers appear below.
CC(C)C1=C(C(=O)N2[C@H](C)CC[C@H]2C(=O)N(C)C)SC2=N[C@@](C)(c3ccc(Cl)cc3)[C@@H](c3ccc(Cl)cc3)N21 | Satisfied
CC[C@@H]1CC[C@@H](C(=O)N2CCN(C(C)=O)CC2)N1C(=O)C1=C(C(C)C)N2C(=N[C@@](C)(c3ccc(Cl)cc3)[C@H]2c2ccc(Cl)cc2)S1 | Satisfied
CC(C)C1=C(C(=O)N2[C@H](C)CC[C@H]2C(=O)N2CCN(C)C(C)(C)C2)SC2=N[C@@](C)(c3ccc(Cl)cc3)[C@@H](c3ccc(Cl)cc3)N21 | Not satisfied
CC[C@@H]1CC[C@@H](C(=O)N2CCN(C(C)=O)[C@@H](C)C2)N1C(=O)C1=C(C(C)C)N2C(=N[C@@](C)(c3ccc(Cl)cc3)[C@H]2c2ccc(Cl)cc2)S1 | Satisfied
CC(C)C1=C(C(=O)N2[C@H](C)CC[C@H]2C(=O)N2CCN(C)[C@@H](C)C2)SC2=N[C@@](C)(c3ccc(Cl)cc3)[C@@H](c3ccc(Cl)cc3)N21 | Not satisfied

Quick check: does CC(=O)N1CCN(C(=O)[C@@H]2CC[C@@H](C)N2C(=O)C2=C(C(C)C)N3C(=N[C@@](C)(c4ccc(Cl)cc4)[C@H]3c3ccc(Cl)cc3)S2)C[C@@H]1C have remaining at 0.5 h, 1 µM under 60%? Not satisfied

Identify whether the compound CC[C@@H]1CC[C@@H](C(=O)N2CCN(C)[C@@H](C)C2)N1C(=O)C1=C(C(C)C)N2C(=N[C@@](C)(c3ccc(Cl)cc3)[C@H]2c2ccc(Cl)cc2)S1 records remaining at 0.5 h, 1 µM below 60%. Not satisfied

----------
Give concentration at 1 h for every item shown.
# experimental.details: Drug uptake in tumor of NOD/SCID mouse xenografted with human MV4-11 cells at 100 mg/kg, po measured at 1 hr by LC-MS/MS analysis
# Type: ADME, organism-based, Neoplasm
# Set-up: dose 100 mg/kg, route oral
# condition.set: read-out: Drug uptake
Answers are plain numbers, in ng/mL.

CC(C)C1=C(C(=O)N2[C@H](C)CC[C@H]2C(=O)N2CCN(C)[C@H](C)C2)SC2=N[C@@](C)(c3ccc(Cl)cc3)[C@@H](c3ccc(Cl)cc3)N21 | 18900

--- query ---
// recorded concentration at 1 h for CC[C@@H]1CC[C@@H](C(=O)N2CCN(C(C)=O)[C@H](C)C2)N1C(=O)C1=C(C(C)C)N2C(=N[C@@](C)(c3ccc(Cl)cc3)[C@H]2c2ccc(Cl)cc2)S1 : 31500

----------
I'd be grateful if you could share measured AUC for these entries.
# experimental.details: AUC in NOD/SCID mouse at 100 mg/kg, po
# Format: ADME, organism-based
# Set-up: dose 100 mg/kg, route oral
# condition.set: plasma

CC[C@@H]1CC[C@@H](C(=O)N2CCN(C(C)=O)[C@H](C)C2)N1C(=O)C1=C(C(C)C)N2C(=N[C@@](C)(c3ccc(Cl)cc3)[C@H]2c2ccc(Cl)cc2)S1 | 737 µg·h/mL

Attention now shifts to the item below.
So, CC(C)C1=C(C(=O)N2[C@H](C)CC[C@H]2C(=O)N2CCN(C)[C@H](C)C2)SC2=N[C@@](C)(c3ccc(Cl)cc3)[C@@H](c3ccc(Cl)cc3)N21 ? Its AUC was 93.1 µg·h/mL

----------
# experimental.details: Drug uptake in tumor of NOD/SCID mouse xenografted with human MV4-11 cells at 100 mg/kg, po measured at 2 hrs by LC-MS/MS analysis
# Format: ADME, organism-based, Neoplasm
# Parameters: dose 100 mg/kg, route oral
# condition.set: read-out: Drug uptake
Would you mind telling me the reported concentration at 2 h of each entry?
One number for each entry, in ng/mL.

CC[C@@H]1CC[C@@H](C(=O)N2CCN(C(C)=O)[C@H](C)C2)N1C(=O)C1=C(C(C)C)N2C(=N[C@@](C)(c3ccc(Cl)cc3)[C@H]2c2ccc(Cl)cc2)S1 | 32700

Next:
response.value for CC(C)C1=C(C(=O)N2[C@H](C)CC[C@H]2C(=O)N2CCN(C)[C@H](C)C2)SC2=N[C@@](C)(c3ccc(Cl)cc3)[C@@H](c3ccc(Cl)cc3)N21 (field: concentration at 2 h) = 23300

----------
# experimental.details: Drug uptake in tumor of NOD/SCID mouse xenografted with human MV4-11 cells at 100 mg/kg, po measured at 4 hrs by LC-MS/MS analysis
# Type: ADME, organism-based, Neoplasm
# Set-up: dose 100 mg/kg, route oral
# condition.set: read-out: Drug uptake
quantity.kind: concentration at 4 h (ng/mL)
Give bare numbers, in ng/mL.

CC[C@@H]1CC[C@@H](C(=O)N2CCN(C(C)=O)[C@H](C)C2)N1C(=O)C1=C(C(C)C)N2C(=N[C@@](C)(c3ccc(Cl)cc3)[C@H]2c2ccc(Cl)cc2)S1 | 31200

Next item in the queue.
Reported concentration at 4 h ( CC(C)C1=C(C(=O)N2[C@H](C)CC[C@H]2C(=O)N2CCN(C)[C@H](C)C2)SC2=N[C@@](C)(c3ccc(Cl)cc3)[C@@H](c3ccc(Cl)cc3)N21 ) = 27900

----------
# experimental.details: Metabolic stability in mouse liver microsomes assessed as compound remaining at 1 uM after 30 mins by LC-MS/MS analysis
# Assay type: ADME, Microsome
# condition.set: read-out: Stability
Classes are defined on remaining at 0.5 h, 1 µM with ranges low: < 20%; mid: ≥ 20% and < 60%; high: ≥ 60%

CC[C@@H]1CC[C@@H](C(=O)N2CCN(C)CC2)N1C(=O)C1=C(C(C)C)N2C(=N[C@@](C)(c3ccc(Cl)cc3)[C@H]2c2ccc(Cl)cc2)S1 | mid
CC[C@@H]1CC[C@@H](C(=O)N2CCOCC2)N1C(=O)C1=C(C(C)C)N2C(=N[C@@](C)(c3ccc(Cl)cc3)[C@H]2c2ccc(Cl)cc2)S1 | low

Class? Entry: CC(C)C1=C(C(=O)N2CCC[C@H]2C(=O)N(C)C)SC2=N[C@@](C)(c3ccc(Cl)cc3)[C@@H](c3ccc(Cl)cc3)N21 low

Lab note: which band did CC(=O)N1CCN(C(=O)[C@@H]2CC[C@@H](C)N2C(=O)C2=C(C(C)C)N3C(=N[C@@](C)(c4ccc(Cl)cc4)[C@H]3c3ccc(Cl)cc3)S2)CC1 land in? low

Which remaining at 0.5 h, 1 µM band matches CC[C@H]1CC[C@@H](C(=O)N(C)C)N1C(=O)C1=C(C(C)C)N2C(=N[C@@](C)(c3ccc(Cl)cc3)[C@H]2c2ccc(Cl)cc2)S1 ? mid

In plain terms, what class is CC[C@@H]1CC[C@@H](C(=O)N2CCN(C)[C@H](C)C2)N1C(=O)C1=C(C(C)C)N2C(=N[C@@](C)(c3ccc(Cl)cc3)[C@H]2c2ccc(Cl)cc2)S1 ? high

Into which category would you place CC(C)C1=C(C(=O)N2[C@H](C)CC[C@H]2C(=O)N2CCN(C)[C@H](C)C2)SC2=N[C@@](C)(c3ccc(Cl)cc3)[C@@H](c3ccc(Cl)cc3)N21 ? high

Please classify: CC(C)C1=C(C(=O)N2[C@@H](C)CC[C@H]2C(=O)N(C)C)SC2=N[C@@](C)(c3ccc(Cl)cc3)[C@@H](c3ccc(Cl)cc3)N21 mid

In plain terms, what class is CC[C@@H]1CC[C@@H](C(=O)N(C)C)N1C(=O)C1=C(C(C)C)N2C(=N[C@@](C)(c3ccc(Cl)cc3)[C@H]2c2ccc(Cl)cc2)S1 ? high

Dear colleague, I would appreciate it if you could identify the bin for CC(C)C1=C(C(=O)N2[C@H](C)CC[C@H]2C(=O)N2CCN(C)CC2)SC2=N[C@@](C)(c3ccc(Cl)cc3)[C@@H](c3ccc(Cl)cc3)N21 and reply at your convenience. mid

Could you tell me which band CC(=O)N1CCN(C(=O)[C@@H]2CC[C@@H](C)N2C(=O)C2=C(C(C)C)N3C(=N[C@@](C)(c4ccc(Cl)cc4)[C@H]3c3ccc(Cl)cc3)S2)C[C@H]1C belongs to? mid
